Data credit: ChEMBL document CHEMBL3046192

# Test system: Pyricularia grisea
# assay.protocol: microbe, parasite or virus in culture
# Assay type: functional
# details: ATCC 64413, 120 h
As shown below, each of these compounds has a reported inhibition at 200 µg/mL value.

>  <compound>
Cc1cc2nc(-c3ccc(Cl)cc3)sc(=O)n2n1

>  <system.under.test>
Pyricularia grisea

>  <inhibition at 200 µg/mL [%]>
66

$$$$
>  <compound>
Cc1nn(C(C)(C)C)c2nc(-c3ccccc3)sc(=S)c12

>  <system.under.test>
Pyricularia grisea

>  <inhibition at 200 µg/mL [%]>
17

$$$$
>  <compound>
Cc1nn(C(C)(C)C)c2nc(C(F)(F)F)[nH]c(=S)c12

>  <system.under.test>
Pyricularia grisea

>  <inhibition at 200 µg/mL [%]>
44

$$$$
>  <compound>
Cc1cc2nc(-c3ccccc3)sc(=O)n2n1

>  <system.under.test>
Pyricularia grisea

>  <inhibition at 200 µg/mL [%]>
100

$$$$
>  <compound>
Cc1nn(C(C)(C)C)c2nc(C(F)(F)F)sc(=S)c12

>  <system.under.test>
Pyricularia grisea

>  <inhibition at 200 µg/mL [%]>
58.3

$$$$
>  <compound>
Cc1n[nH]c2nc(-c3ccccc3)sc(=O)c12

>  <system.under.test>
Pyricularia grisea

>  <inhibition at 200 µg/mL [%]>
30

$$$$
>  <compound>
Cc1nn(-c2ccccc2)c2nc(C(F)(F)F)[nH]c(=S)c12

>  <system.under.test>
Pyricularia grisea

>  <inhibition at 200 µg/mL [%]>
58

$$$$
>  <compound>
Cc1nn(C(C)(C)C)c2nc(-c3ccccc3)sc(=O)c12

>  <system.under.test>
Pyricularia grisea

>  <inhibition at 200 µg/mL [%]>
19

$$$$
>  <compound>
Cc1n[nH]c2nc(Cc3ccccc3)sc(=S)c12

>  <system.under.test>
Pyricularia grisea

>  <inhibition at 200 µg/mL [%]>
77

$$$$
>  <compound>
Cc1cc2nc(C(F)(F)F)sc(=O)n2n1

>  <system.under.test>
Pyricularia grisea

>  <inhibition at 200 µg/mL [%]>
100

$$$$
>  <compound>
O=c1sc(-c2ccccc2)nc2ccnn12

>  <system.under.test>
Pyricularia grisea

>  <inhibition at 200 µg/mL [%]>
75.1

$$$$
>  <compound>
Cc1cc2nc(-c3ccc(Br)cc3)sc(=O)n2n1

>  <system.under.test>
Pyricularia grisea

>  <inhibition at 200 µg/mL [%]>
74

$$$$

* * *

# System: Pyricularia grisea
# assay.protocol: microbe, parasite or virus in culture
# Type: functional
# details: ATCC 64413, 120 h
readout: inhibition at 10 µg/mL (%)

>  <compound>
Cc1cc2nc(-c3ccc(Br)cc3)sc(=O)n2n1

>  <system.under.test>
Pyricularia grisea

>  <readout>
inhibition at 10 µg/mL

>  <value.unit>
%

>  <result.number>
47

$$$$
>  <compound>
O=c1sc(-c2ccccc2)nc2ccnn12

>  <system.under.test>
Pyricularia grisea

>  <readout>
inhibition at 10 µg/mL

>  <value.unit>
%

>  <result.number>
67

$$$$
>  <compound>
O=c1sc(-c2ccccc2)nc2cc(-c3ccccc3)nn12

>  <system.under.test>
Pyricularia grisea

>  <readout>
inhibition at 10 µg/mL

>  <value.unit>
%

>  <result.number>
15

$$$$
>  <compound>
Cc1n[nH]c2nc(Cc3ccccc3)sc(=O)c12

>  <system.under.test>
Pyricularia grisea

>  <readout>
inhibition at 10 µg/mL

>  <value.unit>
%

>  <result.number>
30

$$$$
>  <compound>
Cc1nn(-c2cccc([N+](=O)[O-])c2)c2nc(C(F)(F)F)sc(=O)c12

>  <system.under.test>
Pyricularia grisea

>  <readout>
inhibition at 10 µg/mL

>  <value.unit>
%

>  <result.number>
21.9

$$$$
>  <compound>
Cc1nn(-c2ccccc2)c2nc(C(F)(F)F)[nH]c(=S)c12

>  <system.under.test>
Pyricularia grisea

>  <readout>
inhibition at 10 µg/mL

>  <value.unit>
%

>  <result.number>
23

$$$$
